- targetOrSystem: L1R, vaccinia virus L1R myristyl protein (vaccinia virus, UniProt P07612 1-250)
recordedEndpoint: pEC50
// returns pEC50 (minus log10 of molar concentration), number only

QUERY: // returns reported pEC50 for input DARNI [Cy(DARNI-click)]
RESULT: 6.06
